Ref: the supplement of paper PMC10567573

B1: TPRG1 (parent)
chain: ETIQGFWLLTKIDHWNNEKERILL

Variants of: B1
assay_procedure: protein stability index of a GFP-peptide fusion (GPS, HEK-293T) (PSI 1-6); higher = more stable;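 note: lentivirally expressed fusions sorted by FACS into six bins by GFP to DsRed ratio, PSI derived from sequencing read proportions per bin multiplied by bin number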
settings: c terminus: a fixed tail appended
# protein stability index listing for each entry below
Output spec: single numeric token, no unit.

Examples with their reported protein stability index follow.
Q4H; 1.97
E18W; 2.03

Data request: Consider the variant W15K and give its measured protein stability index.
Data returned: 2.04

Data request: Follow-up entry: L23P
Data returned: 1.95

Data request: // same read-out, input: T10F
Data returned: 1.96
